# SYSTEM_TESTED: T1, Monomeric human CD48-mmH (human)
# T1 chain: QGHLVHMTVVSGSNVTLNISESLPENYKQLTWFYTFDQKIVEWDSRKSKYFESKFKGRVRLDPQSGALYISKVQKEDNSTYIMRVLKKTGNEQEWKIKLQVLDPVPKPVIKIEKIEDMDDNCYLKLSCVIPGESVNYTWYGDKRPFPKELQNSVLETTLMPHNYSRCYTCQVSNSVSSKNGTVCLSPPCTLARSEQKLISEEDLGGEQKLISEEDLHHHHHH
# EXPERIMENTAL_DETAILS: SPR (Biacore), antibody captured by anti-Fc, CD48 in solution, 37 C
Flag rule - Kd less than 10 nM flags True; the remaining entries get False.

// below: answered binders
INSERT INTO assay_data (binder, category_label) VALUES
  ('H4H1707N (antibody, V domains shown, Human IgG4 Fc (H4H)) VH: EGQLLESGGGLAQPGGSLRLSCAASGITFGRYAMSWVRQAPGKGLEWVSLISGSGGSTYHADSVKGRFTISRDNSKNTLYLQMNSLRAEDTAVYYCAIYNNYNWFDPWGQGTLVTVSS VL: EIVLTQSPGTLSLSPGERATLSCRASQSVSSNYLAWYQQKPGQAPRLLIYDASSRATDIPDRFSGSGSGTDFTLTISRLEPEDFAVYYCQQYGSSPRTFGQGTKVEIK', 'True'),
  ('H2M1763N (antibody, mouse IgG2, V domains shown, Human variable domains, mouse IgG2 Fc (H2M)) VH: QIQLVQSGAEMKRPGTSVKVSCKASGYTFTSYGINWVRQAPGQGLEWMGWISAYNGDTNYAQKLQGRVTMTTDTSTTTAYMEVRSLRSDDTAVYYCARFLTGTKDYYYGMDVWGQGTTVTVSS VL: DIQMTQSPSSLSASVGDRVTITCQASQDISNFLNWYQQKPGKAPDLLINDASILETGVPSRFSGSGSGTDFTLTINNLQPEDIATYYCQQYDNLPLTFGGGTKVEIK', 'False'),
  ('H4H1713N (antibody, V domains shown, Human IgG4 Fc (H4H)) VH: QVQLVQSGAEVKKPGASVKVSCKASGHTFTNYYIHWVRQAPGQGLEWMGITNPNDGNTRYAQKFQGRISMTWDTSTSTVFMELSSLKSEDTAVYYCAGLRYWFFDLWGRGTPVTVSS VL: DIQMTQSPSSVSASVGDRVTITCRASQDISSWLAWYQQKPGKAPNLLIFAASSLQSGVPSRFSGSGSGTDFTLTISSLQPEDFGTYYCQQTDNFPRTFGQGTKVEIN', 'True'),
  ('H4H1775P (antibody, human IgG4, V domains shown, Human IgG4 Fc (H4H)) VH: QVQLVESGGGVVQPGRSLRLSCAASGFTFSNYGMHWVRQAPGKGLEWVAVIWYDESGKHYADSVKGRFTISRDNSQNTLYLQMTSLRAEDTAVYYCARDRWTYSHYFEYWGQGTLVTVSS VL: DIQMTQSPSSVSASVGDRVTITCRASQDISSWVAWYQQKPGKAPKLLIYAASSLQSGVPSRFSGSGSGTDFTLTISSLQPEDFATYYCQQANSFPRTFGQGTKVEIK', 'True');

Next up:
Does H4H1778P (antibody, human IgG4, V domains shown, Human IgG4 Fc (H4H)) VH: QVQLVESGGGVVQPGRSLRLSCAASGFTFSNYGMHWVRQAPGKGLEWVAVIWYDESSKYYTDSVKGRFTISRDNSQNTLYLQMTSLRAEDTAVYYCARDRWTYSHYFEYWGQGTLVTVSS VL: DIQMTQSPSSVSASVGDRVTITCRASQGISSWVAWYQQKPGKAPKLLIYAASSLQSGVPSRFSGSGSGTDFTLTISSLQPEDFATYYCQQANSFPRTFGQGTKVEIK have Kd strictly under 10 nM?
True
